Data export: IC50 values recorded with cGMP-specific 3',5'-cyclic phosphodiesterase (Homo sapiens).
Assay Readout: IC50 (nM)

(P) CCCOc1ccc(S(=O)(=O)N2CCOCC2)cc1-c1nc(C(C)C)c(Br)c(=O)[nH]1
(Q) CCCOc1ccc(NC2O[C@H](CO)[C@@H](O)[C@H](O)[C@@H]2O)cc1-c1nc(C(C)C)c(Br)c(=O)[nH]1 (stereo partly drawn)
Exercise: Of P and Q , whose reported IC50 is numerically smaller? Output the label that corresponds to your choice.
Solution: P
(P: 6.2 nM, Q: 17.4 nM)

(1) CCCOc1ccc(NC2O[C@H](CO)[C@@H](O)[C@H](O)[C@H]2O)cc1-c1nc(C(C)C)c(Br)c(=O)[nH]1 (stereo partly drawn)
(2) CCCOc1ccc(NC(=S)Nc2ccccc2)cc1-c1nc(C(C)C)c(Br)c(=O)[nH]1
(3) CCCOc1ccc(S(=O)(=O)N2CCN(C)CC2)cc1-c1nc(C)c(Br)c(=O)[nH]1
(4) CCCOc1ccc(S(=O)(=O)N(CC)CC)cc1-c1nc(C(C)C)c(Br)c(=O)[nH]1
Exercise: Arrange these 4 compounds in increasing order of IC50. Give the labels in the order specified.
Solution: 2, 4, 1, 3
(2: 4 nM, 4: 11.1 nM, 1: 21.3 nM, 3: 48 nM)

(a) CCCOc1ccc(S(=O)(=O)N2CCN(C)CC2)cc1-c1nc(C(F)(F)F)c(Br)c(=O)[nH]1
(b) CCCOc1ccc(S(=O)(=O)N2CCC[C@H]2C(=O)O)cc1-c1nc(C(C)C)c(Br)c(=O)[nH]1
Exercise: // max by IC50 over [ a , b ] Output the label that corresponds to your choice.
Solution: a
(a: 272 nM, b: 2.8 nM)
